- particulars: 303.15 K; 101.33 kPa; Liquid
# key: entry, value: mass density
Write the answer as a number in kg/m3, unit excluded.

>>> value_observed("CCCCO [butan-1-ol]")
802.14
>>> value_observed("CCCO [propan-1-ol]")
795.68
>>> value_observed("CC(C)CO [2-methyl-1-propanol]")
794.09
>>> value_observed("CC(C)O [propan-2-ol]")
777.41
>>> value_observed("CO [methanol]")
781.22

Attention now turns to another entry.
For this compound ( CCO [ethanol] ), measured mass density is 780.68

* * *

# key: entry, value: viscosity
- particulars: 298.15 K; 101.33 kPa; Liquid
Write the answer as a number in mPa·s, unit excluded.

Observe how each entry below is paired with its result.
>>> value_observed("CC(C)CO")
3.334
>>> value_observed("CN1CCNCC1")
1.841

For this compound ( CCCCO ), measured viscosity is 2.572

* * *

# key: entry, value: mass density
- particulars: 293.15 K; 101.33 kPa; Liquid
Write the answer as a number in kg/m3, unit excluded.

Observe how each entry below is paired with its result.
>>> value_observed("CC(C)CO")
801.58
>>> value_observed("CC(C)O")
785.84
>>> value_observed("CO")
791.09
>>> value_observed("CCCCO")
809.97
>>> value_observed("CCO")
789.32

Attention now turns to another entry.
For this molecule ( CCCO ), measured mass density is 803.79

* * *

# key: entry, value: viscosity
- particulars: 303.15 K; 101.33 kPa; Liquid
Write the answer as a number in mPa·s, unit excluded.

Observe how each entry below is paired with its result.
>>> value_observed("CN1CCNCC1 [N-methylpiperazine]")
1.624
>>> value_observed("CCCCO [butan-1-ol]")
2.271
>>> value_observed("CO [methanol]")
0.509
>>> value_observed("CCCO [propan-1-ol]")
1.73
>>> value_observed("CC(C)CO [2-methyl-1-propanol]")
2.794

For this compound ( CC(C)O [propan-2-ol] ), measured viscosity is 1.782

For this compound ( CCO [ethanol] ), measured viscosity is 0.982

* * *

- particulars: 298.15 K; 101.33 kPa; Liquid
# key: entry, value: mass density
Write the answer as a number in kg/m3, unit excluded.

For this compound ( CCCCO ), measured mass density is 806.15

For this compound ( CN1CCNCC1 ), measured mass density is 899.8

For this compound ( CC(C)CO ), measured mass density is 798.09

For this compound ( CCCO ), measured mass density is 799.74

For this compound ( CC(C)O ), measured mass density is 781.3

For this compound ( CO ), measured mass density is 786.48

For this compound ( CCO ), measured mass density is 785.06

* * *

- particulars: 293.15 K; 101.33 kPa; Liquid
Labelling: viscosity reported below 2 mPa·s becomes yes; at or above becomes no.

>>> assigned_label("CN1CCNCC1")
"no"
>>> assigned_label("CC(C)O")
"no"
>>> assigned_label("CCO")
"yes"
>>> assigned_label("CC(C)CO")
"no"
>>> assigned_label("CCCO")
"no"

IN: Please indicate whether the reported viscosity of CCCCO is strictly below 2 mPa·s.
OUT: no

IN: Please indicate whether the reported viscosity of CO is strictly below 2 mPa·s.
OUT: yes

* * *

- particulars: 298.15 K; 101.33 kPa; Liquid
± gives the expanded uncertainty stated by the source.
recorded metric: viscosity
Answer with the number, then the unit.

>>> value_observed("CCCO [propan-1-ol]")
"1.945 ± 0.023 mPa·s"
>>> value_observed("CC(C)O [propan-2-ol]")
"2.062 ± 0.024 mPa·s"
>>> value_observed("CCO [ethanol]")
"1.078 ± 0.013 mPa·s"

For this molecule ( CO [methanol] ), measured viscosity is 0.551 ± 0.008 mPa·s
